experiment: yeast display, Sf9 membrane polyspecificity reagent, FACS + sequencing; frameworks hold sequencing errors
value kind: polyreactivity (PSR sort gate)

query sequence	measured result
HVQLGESGGGLVQAGGSLRLSCAASGFIFDVYAMGWYRQAPGKERELVAAISSSGGRTYYADSVKGRFTISRDNAKNTVYLQMNSLKPEDTAVYYCAAKTHSRTKVYTADYWGQGTQVTVSS	high polyreactivity
QVQLVESGGGLVQAGGSLRLSCAASGNTFTKYAMGWYRQAPGKERELVADITIGGSTYYADSVKGRFTISRDNAKNTVYLQMNSLKPEDTAVYYCNADVVVQYYFTYYRVFTYDYWGQGTQVTVSS	low polyreactivity
QVQLVESGGGLVQAGGSLRLSCAASGSTYTNAMGWYRPAPGKERELVAAITWSGGTTYYADSVKGRLTISRDNAKNTVYLQMNSLKPEDTAVYYCAAEYRWYSRYFNYWGQGTQVTVSS	high polyreactivity
QVQLVESGGGLVQAGGSLRLSCAASGRTFDSYAMGWYRQAPGKERELVAAIYADSVKGRFTISRDNAKNTVYLQMNSLKPEDTAVYYCAAETYSGQTYLGEYDYWGQGTQVTVSS	low polyreactivity

Consider the record given below.
Per the records, this sequence ( `QVQLVESGGGLVQAGGSLRFSCAPSGITFRFYAMGCYRQAPGKESEFVAAISSRGGRTYYADSVKGRFTISRDYAKNTVYLQMNSLKPEDTAVYYCAAGKIGRYHYDYWGQGTQVTVSS` ) has polyreactivity (PSR sort gate) equal to high polyreactivity

----------
assay: yeast display, Sf9 membrane polyspecificity reagent, FACS + sequencing; frameworks hold sequencing errors
value kind: polyreactivity (PSR sort gate)

The examples below pair each entry with its known result.
query sequence	polyreactivity (PSR sort gate)
QVQLVETGGGLVQAGGSLRLSCAASGSIFLGNAMGWYRQAPGKERELVAAISGGDSTNYADSVKGRFTISRDNAKNTVYLQMKSLKPEDTAVYYCNALTHWAPASYEYDYWGQCTQVTVSS	low polyreactivity
QVQLVESGGGLVQAGGSLRLSCAASGSIFVRYAMGWYRQAPGKERQLVASIRSRGDSTYYADSVKGRFTISRDNAKNTVYLQMNSLKPEETAVYYCAARRYPPRMDYWGQGTQVTVSS	high polyreactivity
QVQLVESGGGLVQAGGSLRLSCAASGLIFYDNMGWYRQAPGKERELVAAISSSGGSTSYADSVKGRFTISRDNAKNTVYLQMNSLKPEDTAVYYCAADQYYYWYTHQSIGYDYWGQGTQVTVSS	low polyreactivity
QVQLVESGGGLVQAGGSLRLSCAASGFTFFVYAMGWYRQAPGKERELVATINWSGASTYYADSVKGRFTISRDNAKNTVYLQMKSLKPEDTAVYYCAKDGHYPLVYLAFDYWGQGTQVTVSS	low polyreactivity
QVQLVESGGGLVQAGGSLRLSCAASGITFDANAMGWYRQAPGKERELVARISSGGSTNYADSVKGRFTISRDNAKNTVYLQMNSLKPEDTAVYYCNTDLTGLDAEYDYWGQGTQVTVSS	low polyreactivity

// field: polyreactivity (PSR sort gate); key: `QVQLVESGGGLVQAGGSLRLSCAASGRIYLRYTMGWYRQAPGKERELVAAISARTTGTYYADSVKGRFTISRDNAKNTVYLQMKSLKPEDTAVYYCASKSKLSRDLYSWGQGTQVTVSS` ; value = low polyreactivity

Entry `QFQLVESGGGLVQAGGSLRLSCAASGRTFRGYAMGWYRQAPGKERELVAAITWRGGSTYYADSVKGRFTISRDNAKNTVYLQMNSLKPEDTAVYYCNTLVWSYLGGYYSRFDYWGQGTQVTVSS` — recorded polyreactivity (PSR sort gate) = high polyreactivity

The reported polyreactivity (PSR sort gate) of the sequence `QVQLVESGGGLVQAGGSLRLSCAASGITFRSYAMGWYRQAPGKERELVATISWSGGITYYADSVKGRFTISRDNAKNTVYLQMNSLKPEDTAVYYCAKASQSWGRDDYYYWGQGTQVTVSS` was low polyreactivity

Input `QVQLVESGGGLVQAGGSLRLSCAASGRIYVKNAMGWYRPAPGKERELVAAINWRGTSTYYADSVKGRFTISRDNAKNTVYLQMKSLKPEDTAVYYCNRVLGYPYGVDYWGQGTQVTVSS` . Output polyreactivity (PSR sort gate): high polyreactivity

The reported value for `QVQLVESGGGLVQAGGSLRLSCAASGRIFRFYVMGWYRQAPGKERELVAAISDSSPSTYYADSVKGRFTISRDNAKKTVYLQMNSLKPEDTAVYYCAARYPPYWSYDYDYWGQGTQVTVSS` in terms of polyreactivity (PSR sort gate) is low polyreactivity

Query `QVHLVESGGGLVQAGRSLRFSCAASGSIFGVNTMGWYRQAPGKERELDAGISSSGSSTYYADSVKGRFTISRDNAKNTVYLQMNSLKPEDTAVYDCAVRPRYYSTNMDSWGQGTQVTVSS` yields polyreactivity (PSR sort gate) of low polyreactivity

Origin of values: the nanobody polyreactivity screen of Harvey et al. (2022)
